- Tested on: MCF7 multi-cell spheroids with HUVEC/MSC, viability
- protocol.summary: Anticancer human tumor MCF7 cell line growth inhibition [IpAb];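 further: spheroids exposed to agents for seven days before readout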
- measurement.parameters: second compound 1 µM; first compound 0.3 µM; active compounds read low
The entries below come with measured viability, T/C values attached.
measurement.label: viability, T/C (%)

>>> numeric_result("Cn1cnc2c(F)c(Nc3ccc(Br)cc3Cl)c(C(=O)NOCCO)cc21 + CC(C)NCC(C(=O)N1CCN(c2ncnc3c2C(C)CC3O)CC1)c1ccc(Cl)cc1")
50.9
>>> numeric_result("CC(=O)c1c(C)c2cnc(Nc3ccc(N4CCNCC4)cn3)nc2n(C2CCCC2)c1=O + CCN1CCN(Cc2ccc(Nc3ncc(F)c(-c4cc(F)c5nc(C)n(C(C)C)c5c4)n3)nc2)CC1")
92.2
>>> numeric_result("CC(C)(C)c1cnc(CSc2cnc(NC(=O)C3CCNCC3)s2)o1 + CC(C)NCC(C(=O)N1CCN(c2ncnc3c2C(C)CC3O)CC1)c1ccc(Cl)cc1")
21.6

---

- Test system: MCF7 multi-cell spheroids with HUVEC/MSC, viability
- protocol.summary: Anticancer human tumor MCF7 cell line growth inhibition [IpAb];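 further: spheroids exposed to agents for seven days before readout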
- measurement.parameters: second compound 0.1 µM; first compound 0.3 µM; active compounds read low
Hi! Could you tag entries with viability, T/C below 90% as y, and those at or above as n? Much appreciated.

>>> class_assignment("Cn1cnc2c(F)c(Nc3ccc(Br)cc3Cl)c(C(=O)NOCCO)cc21 + CCN1CCN(Cc2ccc(Nc3ncc(F)c(-c4cc(F)c5nc(C)n(C(C)C)c5c4)n3)nc2)CC1")
"n"
>>> class_assignment("CC(=O)c1c(C)c2cnc(Nc3ccc(N4CCNCC4)cn3)nc2n(C2CCCC2)c1=O + CCN1CCN(Cc2ccc(Nc3ncc(F)c(-c4cc(F)c5nc(C)n(C(C)C)c5c4)n3)nc2)CC1")
"y"
>>> class_assignment("CC(C)(C)c1cnc(CSc2cnc(NC(=O)C3CCNCC3)s2)o1 + CCN1CCN(Cc2ccc(Nc3ncc(F)c(-c4cc(F)c5nc(C)n(C(C)C)c5c4)n3)nc2)CC1")
"y"
>>> class_assignment("CC(=O)c1c(C)c2cnc(Nc3ccc(N4CCNCC4)cn3)nc2n(C2CCCC2)c1=O + CC(C)NCC(C(=O)N1CCN(c2ncnc3c2C(C)CC3O)CC1)c1ccc(Cl)cc1")
"y"
>>> class_assignment("Cn1cnc2c(F)c(Nc3ccc(Br)cc3Cl)c(C(=O)NOCCO)cc21 + CC(C)NCC(C(=O)N1CCN(c2ncnc3c2C(C)CC3O)CC1)c1ccc(Cl)cc1")
"y"
>>> class_assignment("CC(C)(C)c1cnc(CSc2cnc(NC(=O)C3CCNCC3)s2)o1 + CC(C)NCC(C(=O)N1CCN(c2ncnc3c2C(C)CC3O)CC1)c1ccc(Cl)cc1")
"y"

---

- System: MCF7 multi-cell spheroids with HUVEC/MSC, viability
- protocol.summary: Anticancer human tumor MCF7 cell line growth inhibition [IpAb];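 further: spheroids exposed to agents for seven days before readout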
- measurement.parameters: second compound 0.01 µM; first compound 0.1 µM; active compounds read low
Hi! Could you tag entries with viability, T/C below 90% as satisfied, and those at or above as not satisfied? Much appreciated.

>>> class_assignment("Cc1nc(NC(=O)N2CCCC2C(N)=O)sc1-c1ccnc(C(C)(C)C(F)(F)F)c1 (stereo not given) + CCN1CCN(Cc2ccc(Nc3ncc(F)c(-c4cc(F)c5nc(C)n(C(C)C)c5c4)n3)nc2)CC1")
"not satisfied"
>>> class_assignment("COc1c(OCCCN2CCOCC2)ccc2c3n(c(=NC(=O)c4cnc(N)nc4)nc12)CCN3 + CCN1CCN(Cc2ccc(Nc3ncc(F)c(-c4cc(F)c5nc(C)n(C(C)C)c5c4)n3)nc2)CC1")
"satisfied"
>>> class_assignment("CC(C)n1nc(-c2ccc3oc(N)nc3c2)c2c(N)ncnc21 + CCN1CCN(Cc2ccc(Nc3ncc(F)c(-c4cc(F)c5nc(C)n(C(C)C)c5c4)n3)nc2)CC1")
"satisfied"
>>> class_assignment("CC1(C)CCC(CN2CCN(c3ccc(C(=O)NS(=O)(=O)c4ccc(NCC5CCOCC5)c([N+](=O)[O-])c4)c(Oc4cnc5[nH]ccc5c4)c3)CC2)=C(c2ccc(Cl)cc2)C1 + CCN1CCN(Cc2ccc(Nc3ncc(F)c(-c4cc(F)c5nc(C)n(C(C)C)c5c4)n3)nc2)CC1")
"not satisfied"
>>> class_assignment("Cn1nccc1Nc1nccc(-c2ccn(C(CO)c3ccc(Cl)c(F)c3)c(=O)c2)n1 (stereo not given) + CCN1CCN(Cc2ccc(Nc3ncc(F)c(-c4cc(F)c5nc(C)n(C(C)C)c5c4)n3)nc2)CC1")
"not satisfied"
>>> class_assignment("Cn1ncc(Cl)c1-c1cc(C(=O)NC(CN)Cc2cccc(F)c2)sc1Cl (stereo not given) + CCN1CCN(Cc2ccc(Nc3ncc(F)c(-c4cc(F)c5nc(C)n(C(C)C)c5c4)n3)nc2)CC1")
"satisfied"
>>> class_assignment("CCCS(=O)(=O)Nc1ccc(F)c(C(=O)c2c[nH]c3ncc(-c4ccc(Cl)cc4)cc23)c1F + CCN1CCN(Cc2ccc(Nc3ncc(F)c(-c4cc(F)c5nc(C)n(C(C)C)c5c4)n3)nc2)CC1")
"not satisfied"
>>> class_assignment("C=CC(=O)N1CCN(c2nc(=O)n(-c3c(C)ccnc3C(C)C)c3nc(-c4c(O)cccc4F)c(F)cc23)C(C)C1 (stereo not given) + CCN1CCN(Cc2ccc(Nc3ncc(F)c(-c4cc(F)c5nc(C)n(C(C)C)c5c4)n3)nc2)CC1")
"not satisfied"

---

- Test system: MCF7 multi-cell spheroids with HUVEC/MSC, viability
- protocol.summary: Anticancer human tumor MCF7 cell line growth inhibition [IpAb];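 further: spheroids exposed to agents for seven days before readout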
- measurement.parameters: second compound 0.1 µM; first compound 0.316 µM; active compounds read low
measurement.label: viability, T/C (%)

>>> numeric_result("C=CC(=O)N1CCN(c2nc(=O)n(-c3c(C)ccnc3C(C)C)c3nc(-c4c(O)cccc4F)c(F)cc23)C(C)C1 (stereo not drawn) + CCN1CCN(Cc2ccc(Nc3ncc(F)c(-c4cc(F)c5nc(C)n(C(C)C)c5c4)n3)nc2)CC1")
118
>>> numeric_result("COc1c(OCCCN2CCOCC2)ccc2c3n(c(=NC(=O)c4cnc(N)nc4)nc12)CCN3 + CC(C)NCC(C(=O)N1CCN(c2ncnc3c2C(C)CC3O)CC1)c1ccc(Cl)cc1")
9.3
>>> numeric_result("Cc1nc(NC(=O)N2CCCC2C(N)=O)sc1-c1ccnc(C(C)(C)C(F)(F)F)c1 (stereo not drawn) + CCN1CCN(Cc2ccc(Nc3ncc(F)c(-c4cc(F)c5nc(C)n(C(C)C)c5c4)n3)nc2)CC1")
76
>>> numeric_result("C=CC(=O)N1CCN(c2nc(=O)n(-c3c(C)ccnc3C(C)C)c3nc(-c4c(O)cccc4F)c(F)cc23)C(C)C1 (stereo not drawn) + CC(C)NCC(C(=O)N1CCN(c2ncnc3c2C(C)CC3O)CC1)c1ccc(Cl)cc1")
100
>>> numeric_result("COc1c(OCCCN2CCOCC2)ccc2c3n(c(=NC(=O)c4cnc(N)nc4)nc12)CCN3 + CCN1CCN(Cc2ccc(Nc3ncc(F)c(-c4cc(F)c5nc(C)n(C(C)C)c5c4)n3)nc2)CC1")
8.37
>>> numeric_result("CC1(C)CCC(CN2CCN(c3ccc(C(=O)NS(=O)(=O)c4ccc(NCC5CCOCC5)c([N+](=O)[O-])c4)c(Oc4cnc5[nH]ccc5c4)c3)CC2)=C(c2ccc(Cl)cc2)C1 + CC(C)NCC(C(=O)N1CCN(c2ncnc3c2C(C)CC3O)CC1)c1ccc(Cl)cc1")
87.6
>>> numeric_result("CC1(C)CCC(CN2CCN(c3ccc(C(=O)NS(=O)(=O)c4ccc(NCC5CCOCC5)c([N+](=O)[O-])c4)c(Oc4cnc5[nH]ccc5c4)c3)CC2)=C(c2ccc(Cl)cc2)C1 + CCN1CCN(Cc2ccc(Nc3ncc(F)c(-c4cc(F)c5nc(C)n(C(C)C)c5c4)n3)nc2)CC1")
102
>>> numeric_result("C=CCn1c(=O)c2cnc(Nc3ccc(N4CCN(C)CC4)cc3)nc2n1-c1cccc(C(C)(C)O)n1 + CCN1CCN(Cc2ccc(Nc3ncc(F)c(-c4cc(F)c5nc(C)n(C(C)C)c5c4)n3)nc2)CC1")
71
>>> numeric_result("CCCS(=O)(=O)Nc1ccc(F)c(C(=O)c2c[nH]c3ncc(-c4ccc(Cl)cc4)cc23)c1F + CC(C)NCC(C(=O)N1CCN(c2ncnc3c2C(C)CC3O)CC1)c1ccc(Cl)cc1")
90.3
>>> numeric_result("Cn1nccc1Nc1nccc(-c2ccn(C(CO)c3ccc(Cl)c(F)c3)c(=O)c2)n1 (stereo not drawn) + CC(C)NCC(C(=O)N1CCN(c2ncnc3c2C(C)CC3O)CC1)c1ccc(Cl)cc1")
91
>>> numeric_result("Cn1ncc(Cl)c1-c1cc(C(=O)NC(CN)Cc2cccc(F)c2)sc1Cl (stereo not drawn) + CCN1CCN(Cc2ccc(Nc3ncc(F)c(-c4cc(F)c5nc(C)n(C(C)C)c5c4)n3)nc2)CC1")
69
>>> numeric_result("Cc1nc(NC(=O)N2CCCC2C(N)=O)sc1-c1ccnc(C(C)(C)C(F)(F)F)c1 (stereo not drawn) + CC(C)NCC(C(=O)N1CCN(c2ncnc3c2C(C)CC3O)CC1)c1ccc(Cl)cc1")
56.9
>>> numeric_result("Cn1nccc1Nc1nccc(-c2ccn(C(CO)c3ccc(Cl)c(F)c3)c(=O)c2)n1 (stereo not drawn) + CCN1CCN(Cc2ccc(Nc3ncc(F)c(-c4cc(F)c5nc(C)n(C(C)C)c5c4)n3)nc2)CC1")
139

The reported measurements were obtained from PubChem BioAssay AID2060329.
